- Test system: NCI-H23
- method-description: NCI tumour cell line growth inhibition, 48 h
Active and inactive are the calls of the source. Rule as the data show it: active = GI50 up to about 1.1 µM and inactive = higher.
Outcome codes: t (active), f (inactive)

[
  {
    "compound": "O=C1c2ccccc2C2C1C(c1ccccc1)C1(Cc3ccccc3C1=O)C2c1ccccc1 (centres undefined)",
    "cat": "f"
  },
  {
    "compound": "CCOC(=O)c1c(-c2ccc(Cl)cc2)c(C#N)c(=S)n(C2OC(CO)C(O)C(O)C2O)c1-c1ccccc1 (centres undefined)",
    "cat": "f"
  },
  {
    "compound": "CC(=O)Nc1ccc(S(=O)(=O)Nc2nc(-c3ccc(Cl)cc3)cc(N3N=C(c4ccc(Br)cc4)CC3c3ccccc3)n2)cc1 (centres undefined)",
    "cat": "f"
  },
  {
    "compound": "O=C1C2CC=CCC2C(=O)N1n1c(Cc2ccc(Cl)cc2)n[nH]c1=O (centres undefined)",
    "cat": "f"
  },
  {
    "compound": "CN1N=C(c2ccncc2)OC1c1cccc(C(F)(F)F)c1 (centres undefined)",
    "cat": "f"
  },
  {
    "compound": "N#CC1(C2SCC[S+]2[O-])C2=C(C(=O)c3ccccc3C2=O)N2CCCC21 (centres undefined)",
    "cat": "t"
  },
  {
    "compound": "Cc1ncc(CO)c(/C=N/CCCCCC/N=C/c2c(CO)cnc(C)c2[O-])c1[O-].[Mg+2]",
    "cat": "f"
  },
  {
    "compound": "O=C1CCCCCCCCCCC1CN1CCCCC1 (centres undefined)",
    "cat": "f"
  },
  {
    "compound": "NS(=O)(=O)C1CCCCC1C(=O)NNC(=O)C(=O)Nc1nnc(S)[nH]1 (centres undefined)",
    "cat": "f"
  }
]
